Cited source for all entries: patent US20260015426A1

The following binders are listed with their measured kon values.
- tested target: T1, hu-M-IL1RAP construct, positions S21-T367 (extracellular domain of the membrane form of human IL1RAP) (human, UniProt Q9NPH3 21-367)
- T1 construct: Biotinylated when captured on the Biacore chip
- T1 sequence: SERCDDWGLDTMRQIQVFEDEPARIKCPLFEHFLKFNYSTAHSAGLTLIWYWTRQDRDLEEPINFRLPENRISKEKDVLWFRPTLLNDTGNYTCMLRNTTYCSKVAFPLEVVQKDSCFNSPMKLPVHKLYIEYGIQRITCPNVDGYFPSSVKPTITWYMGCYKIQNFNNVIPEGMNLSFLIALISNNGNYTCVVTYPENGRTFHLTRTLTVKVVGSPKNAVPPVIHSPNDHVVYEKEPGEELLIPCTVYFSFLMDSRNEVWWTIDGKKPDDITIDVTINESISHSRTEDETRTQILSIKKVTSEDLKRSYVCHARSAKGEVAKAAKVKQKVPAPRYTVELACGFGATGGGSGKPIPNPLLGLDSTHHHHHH
- assay protocol: SPR, Fab analyte, 25 C
Express the result in M⁻¹ s⁻¹ but write the number alone.

Solved cases (2 shown):
K2 Fab (VL L33G) (Fab, V domains shown, Fab with 8xHis tag) VH: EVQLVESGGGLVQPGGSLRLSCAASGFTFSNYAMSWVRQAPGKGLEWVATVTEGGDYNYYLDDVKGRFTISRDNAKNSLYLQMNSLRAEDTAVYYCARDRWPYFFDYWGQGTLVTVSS VL: DIQMTQSPSSLSASVGDRVTITCRASENIYSNGAWYQQKPGKSPKLLVYGAKNLADGVPSRFSGSGSGTDYTLTISSLQPEDFATYYCQHFWTTPRTFGGGTKVEIK
4.57e+06
H2 Fab (VH R96D) (Fab, V domains shown, Fab with 8xHis tag) VH: EVQLVESGGGLVQPGGSLRLSCAASGFTFSNYAMSWVRQAPGKGLEWVATVTEGGDYNYYLDDVKGRFTISRDNAKNSLYLQMNSLRAEDTAVYYCARDDWPYFFDYWGQGTLVTVSS VL: DIQMTQSPSSLSASVGDRVTITCRASENIYSNLAWYQQKPGKSPKLLVYGAKNLADGVPSRFSGSGSGTDYTLTISSLQPEDFATYYCQHFWTTPRTFGGGTKVEIK
5.19e+06

Field request: kon | item: K3 Fab (VL W92K) (Fab, V domains shown, Fab with 8xHis tag) VH: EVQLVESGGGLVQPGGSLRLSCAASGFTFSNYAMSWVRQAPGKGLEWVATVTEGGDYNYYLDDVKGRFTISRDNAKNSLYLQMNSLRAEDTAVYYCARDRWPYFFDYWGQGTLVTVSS VL: DIQMTQSPSSLSASVGDRVTITCRASENIYSNLAWYQQKPGKSPKLLVYGAKNLADGVPSRFSGSGSGTDYTLTISSLQPEDFATYYCQHFKTTPRTFGGGTKVEIK
3.78e+06
